The measurements presented in this section are drawn from patent US6861428B2.

- measurement_protocol: Water solubility test
- Type: physicochemical
- assay_setup: purified water, from amount of water required for dissolution
Cut-off 4% on Solubility (%), inclusive. At or above means 1 (yes); below means 0 (no).

molecule	assigned_label
Cc1cc(-c2cc(CN3CCN(C)CC3)c(=O)n(CCCc3ccc(Cl)cc3)n2)ccc1F.Cl.Cl	1 (yes)
CCOC(=O)Nc1cc(-c2ccc(OC)cc2)nn(C/C=C/c2ccc(Cl)cc2)c1=O [compound 1, reference compound]	0 (no)

Switching to the query record.
query: Has CNC(=O)c1cc(-c2ccc(OC)cc2)nn(CC(C)C)c1=O [compound 2, reference compound] a recorded Solubility (%) greater than or equal to 4%?
result: 0 (no)

----------
value_kind: melting point

Below are worked cases with known answers.
molecule	experimental_value
CN1CCN(Cc2cc(-c3ccc(S(C)(=O)=O)cc3)nn(CC3CC3)c2=O)CC1.Cl.Cl	209 to 211.4 °C
Cc1c(-c2ccccc2)nn(CC(C)C)c(=O)c1N1CCNCC1.Cl.Cl	154.3 to 159.5 °C
CSc1ccc(-c2cc(CN3CCNCC3)c(=O)n(CC(C)C)n2)cc1.Cl.Cl	248.5 to 253.7 °C (dec.)
Cc1cc(-c2cc(CN)c(=O)n(Cc3ccccc3Cl)n2)ccc1F.Cl	201.9 to 206.4 °C

Record Cc1c(-c2ccccc2)nn(CC(C)C)c(=O)c1N1CCN(C)CC1.Cl.Cl . Reported melting point: 243.8 to 244.3 °C

Record CC(C)Cn1nc(-c2ccc(-c3ccccc3)cc2)cc(CN2CCN(C)CC2)c1=O.Cl.Cl . Reported melting point: 262.2 to 263.6 °C

Record CC(C)Cn1nc(-c2ccc(C(F)(F)F)cc2)cc(CN2CCNCC2)c1=O.Cl.Cl . Reported melting point: 210.8 to 212.5 °C

----------
- measurement_protocol: Water solubility test
- Format: physicochemical
- assay_setup: purified water, from amount of water required for dissolution
value_kind: Solubility (%)
Hi! Could you send only the number? It should be in %, unit omitted.

Below are worked cases with known answers.
chemical_structure	Solubility (%)
COc1ccc(-c2cc(CN3CCN(Cc4ccccc4)CC3)c(=O)n(CC3CC3)n2)cc1F.Cl.Cl	1
COc1ccc(-c2cc(CN)c(=O)n(CC3CCCC3)n2)cc1F.Cl	0.08
COc1ccc(-c2cc(CN3CCNCC3)c(=O)n(Cc3ccc(F)cc3)n2)cc1F.Cl.Cl	5
COc1ccc(-c2cc(CN3CCN(CCO)CC3)c(=O)n(CC=Cc3ccc(Cl)cc3)n2)cc1F.Cl.Cl	0.03
COc1ccc(-c2cc(CN3CCN(C)CC3)c(=O)n(CC=Cc3ccc(Cl)cc3)n2)cc1F.Cl.Cl	0.06
COc1ccc(-c2cc(CN3CCN(C)CC3)c(=O)n(Cc3ccc(F)c(F)c3)n2)cc1F.Cl.Cl	10
COc1ccc(-c2cc(CCCN3CCNCC3)c(=O)n(CC3CC3)n2)cc1F.Cl.Cl	10

Record Cc1cc(-c2cc(CN3CCN(C)CC3)c(=O)n(CC=Cc3ccc(Cl)cc3)n2)ccc1F.Cl.Cl . Reported Solubility (%): 10

----------
value_kind: melting point

chemical_structure	melting point
Cc1cc(-c2cc(CN3CCN(C)CC3)c(=O)n(Cc3ccccc3Cl)n2)ccc1F	149.7 to 150.9 °C
Cc1cc(-c2nn(CC=Cc3ccc(Cl)cc3)c(=O)c(N(C)C)c2C)ccc1F.Cl	201.3 to 201.9 °C
COc1ccc(-c2cc(CN(C)C)c(=O)n(CCCc3ccc(F)cc3)n2)cc1F	97 to 100 °C

Record Cc1cc(-c2cc(CN(C)C)c(=O)n(Cc3ccccc3)n2)ccc1F.Cl . Reported melting point: 225.3 to 226 °C

Record Cc1cc(-c2cc(CN3CCN(C)CC3)c(=O)n(CC=Cc3ccc(Cl)cc3)n2)ccc1F.Cl.Cl . Reported melting point: 229.7 to 243.3 °C (dec.)

Record Cc1c(-c2ccc(-c3ccccc3)cc2)nn(CC(C)C)c(=O)c1N(C)C.Cl . Reported melting point: 243.9 to 244.1 °C

Record COc1ccc(-c2cc(CN3CCNCC3)c(=O)n(CC(C)C)n2)cc1F.Cl.Cl . Reported melting point: 163 to 177 °C (dec.)

Record Cc1cc(-c2cc(CN3CCN(C)CC3)c(=O)n(Cc3ccc(Cl)cc3)n2)ccc1F.Cl.Cl . Reported melting point: 246.4 to 249.7 °C (dec.)

----------
melting point for assorted compounds

compound	experimental_value
CC(C)Cn1nc(-c2ccc(-c3ccccc3)cc2)cc(CN2CCNCC2)c1=O.Cl.Cl	226.8 to 228 °C

Proceed to the following item.
Record Cc1cc(-c2cc(CN)c(=O)n(Cc3ccccc3Cl)n2)ccc1F [Example 237] . Reported melting point: 97.6 to 102.2 °C

----------
- measurement_protocol: Water solubility test
- Assay type: physicochemical
- assay_setup: purified water, from amount of water required for dissolution
Cut-off 4% on Solubility (%), inclusive. At or above means Yes; below means No.

query: Has COc1ccc(-c2cc(C(=O)O)c(=O)n(C/C=C/c3ccc(Cl)cc3)n2)cc1 [compound 4, reference compound] a recorded Solubility (%) greater than or equal to 4%?
result: No

query: Has COc1ccc(-c2cc(CN)c(=O)n(Cc3ccc(Cl)cc3)n2)cc1F.Cl a recorded Solubility (%) greater than or equal to 4%?
result: No

query: Has CCN(CC)Cc1cc(-c2ccc(C)cc2)nn(CC(C)C)c1=O.Cl a recorded Solubility (%) greater than or equal to 4%?
result: Yes

query: Has COc1ccc(-c2cc(CN(CCO)CCO)c(=O)n(CC3CC3)n2)cc1F.Cl a recorded Solubility (%) greater than or equal to 4%?
result: Yes

----------
melting point for assorted compounds

Below are worked cases with known answers.
compound	melting point
Cc1c(-c2ccc(C(F)(F)F)cc2)nn(CC(C)C)c(=O)c1N1CCN(C)CC1.Cl.Cl	249.9 to 252.8 °C
CN1CCN(Cc2cc(-c3ccc([S+](C)[O-])cc3)nn(CC3CC3)c2=O)CC1.Cl.Cl (stereo not shown)	80 °C (dec.)
CSc1ccc(-c2cc(CN3CCN(C)CC3)c(=O)n(CC3CC3)n2)cc1.Cl.Cl [Example 149]	234.6 to 239.2 °C

Proceed to the following item.
Record COc1ccc(-c2cc(CN3CCNCC3)c(=O)n(CC3CC3)n2)cc1F [Example 20] . Reported melting point: 111.5 to 118 °C

----------
value_kind: melting point

Below are worked cases with known answers.
chemical_structure	melting point
COc1ccc(-c2cc(CN)c(=O)n(Cc3ccc(F)cc3)n2)cc1F	145 to 149 °C
COc1ccc(-c2cc(CN3CCNCC3)c(=O)n(Cc3ccc(F)cc3)n2)cc1F	142 to 143 °C
COc1ccc(-c2cc(CN3CCN(C)CC3)c(=O)n(CC=Cc3ccc(Cl)cc3)n2)cc1F	123.9 to 125.5 °C
CC(C)Cn1nc(-c2ccc(S(C)(=O)=O)cc2)cc(CN(C)C)c1=O.Cl	221.4 to 223.3 °C
CC(C)Cn1nc(-c2ccccc2)cc(CN(C)C)c1=O.Cl	221.7 to 222.3 °C
COc1ccc(-c2cc(CN)c(=O)n(Cc3ccc(Cl)cc3)n2)cc1F	128.5 to 131.4 °C

Proceed to the following item.
Record Cc1cc(-c2cc(CN3CCNCC3)c(=O)n(CC=Cc3ccccc3)n2)ccc1F.Cl.Cl . Reported melting point: 171.1 to 187.1 °C (dec.)

----------
- measurement_protocol: Water solubility test
- Assay type: physicochemical
- assay_setup: purified water, from amount of water required for dissolution
Cut-off 0.4% on Solubility (%), inclusive. At or above means class 1; below means class 0.

compound	assigned_label
Cc1ccc(-c2cc(CN(C)C)c(=O)n(CC(C)C)n2)cc1.Cl	class 1
COc1ccc(-c2cc(CCCN)c(=O)n(CC3CC3)n2)cc1F.Cl	class 1
CC(C)Cn1nc(-c2ccc(F)c(F)c2)cc(CN(CCO)CCO)c1=O.Cl	class 1
CSc1ccc(-c2cc(CN3CCN(C)CC3)c(=O)n(CC3CC3)n2)cc1.Cl.Cl	class 1
Cc1cc(-c2cc(CN(C)C)c(=O)n(CC(C)C)n2)ccc1F.Cl	class 1
COc1ccc(-c2cc(CN)c(=O)n(Cc3ccc(F)cc3)n2)cc1F.Cl	class 0
COc1ccc(-c2cc(CN(C)C)c(=O)n(Cc3ccc(F)c(F)c3)n2)cc1F.Cl	class 1
CNC(=O)c1cc(-c2ccc(OC)c(F)c2)nn(CC2CC2)c1=O [compound 3, reference compound]	class 0

Switching to the query record.
query: Has COc1ccc(-c2cc(CN3CCNCC3)c(=O)n(CC3CC3)n2)cc1F.Cl.Cl a recorded Solubility (%) greater than or equal to 0.4%?
result: class 1

----------
value_kind: melting point

Below are worked cases with known answers.
compound	value_kind	experimental_value
Cc1ccc(-c2cc(CN3CCN(C)CC3)c(=O)n(CC(C)C)n2)cc1F.Cl.Cl	melting point	248.5 to 252 °C (dec.)
Cc1ccc(-c2cc(CN(C)C)c(=O)n(CC(C)C)n2)cc1F.Cl	melting point	246.5 to 248.5 °C
C#CCNCc1cc(-c2ccc(SC)cc2)nn(CC(C)C)c1=O.Cl	melting point	197.5 to 198.4 °C
COc1ccc(-c2cc(CN3CCN(C)CC3)c(=O)n(Cc3ccc(F)c(F)c3)n2)cc1F	melting point	135.4 to 136 °C
Cc1ccc(-c2nn(CC(C)C)c(=O)c(NC(CO)CO)c2C)cc1	melting point	134.1 to 135.2 °C

Record Cc1ccc(-c2cc(CN)c(=O)n(CC(C)C)n2)cc1 . Reported melting point: 74.9 to 77.9 °C

Record CC(C)Cn1nc(-c2ccc([S+](C)[O-])cc2)cc(CN(C)C)c1=O.Cl (stereo not drawn) . Reported melting point: 204.2 to 206 °C

Record Cc1cc(-c2cc(CN3CCNCC3)c(=O)n(Cc3ccccc3)n2)ccc1F.Cl.Cl . Reported melting point: 162.7 to 180.7 °C (dec.)

Record Cc1c(-c2ccc([S+](C)[O-])cc2)nn(CC(C)C)c(=O)c1N1CCN(C)CC1.Cl.Cl (stereo not drawn) . Reported melting point: 224.5 to 229.1 °C (dec.)

Record COc1ccc(-c2cc(CN3CCN(C)CC3)c(=O)n(Cc3ccc(F)cc3)n2)cc1F . Reported melting point: 112 to 113 °C

Record CSc1ccc(-c2nn(CC3CC3)c(=O)c(N(C)C)c2C)cc1.Cl . Reported melting point: 230.2 to 232.3 °C

Record COc1ccc(-c2cc(CN(C)C)c(=O)n(Cc3ccc(Cl)cc3)n2)cc1F . Reported melting point: 95.3 to 96.7 °C

Record CC(C)Cn1nc(-c2ccc(F)c(F)c2)cc(CN2CCN(C)CC2)c1=O.Cl.Cl . Reported melting point: 242.5 to 243.4 °C

Record COc1ccc(-c2cc(CCCN3CCN(C)CC3)c(=O)n(Cc3ccc(F)cc3)n2)cc1F . Reported melting point: 108 to 109 °C

Record CSc1ccc(-c2cc(CN(C)C)c(=O)n(CC(C)C)n2)cc1.Cl . Reported melting point: 216.8 to 218.4 °C

Record COc1ccc(-c2cc(CN3CCN(C)CC3)c(=O)n(CC(C)C)n2)cc1F.Cl.Cl . Reported melting point: 236.9 to 237 °C

Record Cc1cc(-c2cc(CN3CCNCC3)c(=O)n(CC=Cc3ccc(Cl)cc3)n2)ccc1F.Cl.Cl . Reported melting point: 186.7 to 197 °C (dec.)

Record Cc1cc(-c2cc(CN(C)C)c(=O)n(CC=Cc3ccccc3)n2)ccc1F.Cl . Reported melting point: 183.6 to 184.5 °C

Record CC(C)Cn1nc(-c2ccc(S(C)(=O)=O)cc2)cc(CN2CCNCC2)c1=O.Cl.Cl . Reported melting point: 222.4 to 224.2 °C
